The measurements presented in this section are drawn from patent US10226453B2.

test system: IL-6 (THP-1 cells); test: IL-6 inhibition in LPS-stimulated THP-1 human monocyte cells (HTRF); assay type: cell-based; details: LPS 500 ng/mL, 22 hours, IL6 HTRF
quantity: EC50 (nM)
Form entry: value (nM) — number only.

Recorded EC50, per entry:
- structure: "c1cc(-c2ccoc2)c2cc(-c3n[nH]c4ccc(-c5cncc(CNCC6CCCC6)c5)nc34)[nH]c2c1"
  observed: 3570
- structure: "Cc1ccncc1-c1ccc2[nH]nc(-c3cc4c(-c5cc(F)cc(CNS(C)(=O)=O)c5)cccc4[nH]3)c2n1"
  observed: 101
- structure: "Fc1cccc(-c2cccc3[nH]c(-c4n[nH]c5ccc(-c6cncc(OCc7ccccc7)c6)nc45)cc23)c1"
  observed: 2910
- structure: "Oc1cncc(-c2ccc3[nH]nc(-c4cc5c(-c6cccs6)cccc5[nH]4)c3n2)c1"
  observed: 347
- structure: "O=C(Nc1cncc(-c2ccc3[nH]nc(-c4cc5c(-c6cccs6)cccc5[nH]4)c3n2)c1)c1ccccc1"
  observed: 1070
- structure: "CN1CCN(c2cccc3[nH]c(-c4n[nH]c5ccc(-c6cncnc6)nc45)cc23)CC1"
  observed: 751
- structure: "c1cc(N2CCCCC2)c2cc(-c3n[nH]c4ccc(-c5cncc(OC6CCNCC6)c5)nc34)[nH]c2c1"
  observed: 1980
- structure: "Cc1ccncc1-c1ccc2[nH]nc(-c3cc4ccccc4[nH]3)c2n1"
  observed: 17

Which EC50 is listed for "Cc1ccncc1-c1ccc2[nH]nc(-c3cc4c(-c5ccc(F)cc5)cccc4[nH]3)c2n1" ? 388

Which EC50 is listed for "CC(C)CC(=O)Nc1cncc(-c2ccc3[nH]nc(-c4cc5c(-c6ccccc6F)cccc5[nH]4)c3n2)c1" ? 72

----------
tested on: Wnt activity (Sp5-Luc reporter, SW480 colon carcinoma cells); experiment: Wnt activity screening assay: Sp5-Luc reporter gene in SW480 colon carcinoma cells; assay type: cell-based; conditions: Homo sapiens, overnight incubation, 10-point curve from 10 μM
EC50 values by entry

Recorded EC50, per entry:
- structure: "Cn1cc(-c2ccc3[nH]nc(-c4cc5c(-c6cccc(F)c6)cccc5[nH]4)c3n2)cn1"
  system: "Wnt activity (Sp5-Luc reporter, SW480 colon carcinoma cells)"
  EC50: "338 nM"
- structure: "Cc1ncc(-c2ccc3[nH]nc(-c4cc5ccccc5[nH]4)c3n2)n1C"
  system: "Wnt activity (Sp5-Luc reporter, SW480 colon carcinoma cells)"
  EC50: "640 nM"

Then there is this compound:
Form field - read-out: EC50; system: Wnt activity (Sp5-Luc reporter, SW480 colon carcinoma cells); submitted item: "Cc1ccncc1-c1ccc2[nH]nc(-c3cc4c(-c5ccncc5)cccc4[nH]3)c2n1" 299 nM

----------
tested on: primary human fibroblasts derived from IPF patients (LL29 cells) treated with TGF-β1; assay: Inhibition of the fibrotic process: αSMA staining in TGF-β1 treated primary human fibroblasts from IPF patients (LL29 cells); format: cell-based; conditions: Fibroblast, 96 h, TGF-β1 20 ng/mL, 4 days, % αSMA positive cells
EC50 values by entry
Form entry: value (nM) — number only.

- structure: "c1cc(N2CCCCC2)c2cc(-c3n[nH]c4ccc(-c5cncnc5)nc34)[nH]c2c1"
  EC50 [nM]: 1280
- structure: "CN(C)Cc1cncc(-c2ccc3[nH]nc(-c4cc5c(-c6cccs6)cccc5[nH]4)c3n2)c1"
  EC50 [nM]: 1270
- structure: "c1cncc(-c2ccc3[nH]nc(-c4cc5ccccc5[nH]4)c3n2)c1"
  EC50 [nM]: 1140

Which EC50 is listed for "O=C(CC1CCNCC1)Nc1cncc(-c2ccc3[nH]nc(-c4cc5c(-c6ccccn6)cccc5[nH]4)c3n2)c1" ? 2120

Which EC50 is listed for "CS(=O)(=O)NCc1cc(F)cc(-c2cccc3[nH]c(-c4n[nH]c5ccc(-c6cncc(NC(=O)C7CCCC7)c6)nc45)cc23)c1" ? 403

Which EC50 is listed for "Fc1ccccc1-c1cccc2[nH]c(-c3n[nH]c4ccc(-c5cncc(CNCc6ccccc6)c5)nc34)cc12" ? 2490

Which EC50 is listed for "Cc1ccncc1-c1ccc2[nH]nc(-c3cc4c(-c5cc(F)cc(CNS(C)(=O)=O)c5)cccc4[nH]3)c2n1" ? 78

Which EC50 is listed for "Fc1cccc(-c2cccc3[nH]c(-c4n[nH]c5ccc(-c6cncc(OCc7ccccc7)c6)nc45)cc23)c1" ? 1440

Which EC50 is listed for "FC1(F)CCN(Cc2cncc(-c3ccc4[nH]nc(-c5cc6ccccc6[nH]5)c4n3)c2)C1" ? 90

Which EC50 is listed for "CC(C)(C)C(=O)Nc1cncc(-c2ccc3[nH]nc(-c4cc5c(-c6cccc(F)c6)cccc5[nH]4)c3n2)c1" ? 3670

Which EC50 is listed for "O=C(Nc1cncc(-c2ccc3[nH]nc(-c4cc5c(-c6cccc(F)c6)cccc5[nH]4)c3n2)c1)C1CCCCC1" ? 1280
